Measured GI50 of individual entries
- Test system: UACC-257
- experiment_summary: NCI tumour cell line growth inhibition, 48 h
Calls of active or inactive are those of the source. Cut-off read from the data, not from the text of the source: active = GI50 up to about 1.1 µM and inactive = higher.
property_name: GI50

>  <compound>
O=C1[C@H](O)[C@@H]2CCC[C@@]23CCCN13

>  <property_name>
GI50

>  <reported_value>
> 100 µM (inactive)

$$$$
>  <compound>
Nc1nc(Cl)cc(NCCC2(CO)CCC2)n1

>  <property_name>
GI50

>  <reported_value>
> 100 µM (inactive)

$$$$
>  <compound>
O=C1/C(=C/c2ccc(O)cc2)CCc2ccc([N+](=O)[O-])cc21

>  <property_name>
GI50

>  <reported_value>
97.7 µM (inactive)

$$$$
>  <compound>
CCC1(CN(C)C)CC/C(=C\c2ccc(OC)cc2)C1=O (stereo unspecified)

>  <property_name>
GI50

>  <reported_value>
89.3 µM (inactive)

$$$$
>  <compound>
Cc1ccc(-c2n[nH]c(=O)[nH]2)cc1[N+](=O)[O-]

>  <property_name>
GI50

>  <reported_value>
> 100 µM (inactive)

$$$$
>  <compound>
C[C@H]1O[C@@H](O[C@H]2[C@@H](O)C[C@H](O[C@H]3[C@@H](O)C[C@H](O[C@H]4CC[C@@]5(C)[C@H](CC[C@@H]6[C@@H]5CC[C@]5(C)[C@@H](C7=CC(=O)OC7)CC[C@]65O)C4)O[C@@H]3C)O[C@@H]2C)C[C@H](O)[C@@H]1O

>  <property_name>
GI50

>  <reported_value>
0.0582 µM (active)

$$$$
>  <compound>
Cc1ccc(C(=O)N2c3ccccc3N(C)n3cccc3C2CC(=O)O)cc1 (stereo unspecified)

>  <property_name>
GI50

>  <reported_value>
> 100 µM (inactive)

$$$$
>  <compound>
CN1C(=O)CC2CCCN2C1=O (stereo unspecified)

>  <property_name>
GI50

>  <reported_value>
> 100 µM (inactive)

$$$$
>  <compound>
Cn1c(=O)n2n(c1=O)C([S+]([O-])c1ccccc1)C2 (stereo unspecified)

>  <property_name>
GI50

>  <reported_value>
> 100 µM (inactive)

$$$$
>  <compound>
NCCSCCc1ccccc1

>  <property_name>
GI50

>  <reported_value>
> 100 µM (inactive)

$$$$
>  <compound>
Nc1ccc2c(=O)cc(-c3ccc(Br)s3)[nH]c2n1

>  <property_name>
GI50

>  <reported_value>
> 27.7 µM (inactive)

$$$$
>  <compound>
CC1=C(C(=O)Nc2ccccc2)C(c2ccc(C3C(C(=O)Nc4ccccc4)=C(C)NC(C)=C3C(=O)Nc3ccccc3)cc2)C(C(=O)Nc2ccccc2)=C(C)N1

>  <property_name>
GI50

>  <reported_value>
2.13 µM (inactive)

$$$$
>  <compound>
O/N=C1\C(=C\c2ccc3c(c2)OCCO3)CCCC1C(NO)c1ccc2c(c1)OCCO2 (stereo unspecified)

>  <property_name>
GI50

>  <reported_value>
20.4 µM (inactive)

$$$$
>  <compound>
Oc1ccc(-c2cn3cc(C(F)(F)F)ccc3n2)cc1

>  <property_name>
GI50

>  <reported_value>
29.6 µM (inactive)

$$$$
>  <compound>
CCOc1ccc(/C=C2\NC(=S)N(/C=C3\C(=O)Oc4ccccc4C3=O)C2=O)cc1

>  <property_name>
GI50

>  <reported_value>
26.6 µM (inactive)

$$$$
>  <compound>
N#CC(C(=O)CCCC(=O)Nc1ccccc1[N+](=O)[O-])c1c(Cl)cccc1Cl (stereo unspecified)

>  <property_name>
GI50

>  <reported_value>
> 100 µM (inactive)

$$$$
>  <compound>
CC1(C)C/C(=N/O)c2c(nc3ccc4ccccc4c3c2-c2ccc(Cl)cc2)C1

>  <property_name>
GI50

>  <reported_value>
25.4 µM (inactive)

$$$$
>  <compound>
COc1ccc(C2(O)C(S(=O)(=O)c3ccc(C)cc3)=Cc3ccc(OC)cc32)cc1 (stereo unspecified)

>  <property_name>
GI50

>  <reported_value>
> 100 µM (inactive)

$$$$
>  <compound>
COC(=O)C(/C(=N/N)C(=O)Nc1ccc(C)c(C)c1)c1nc2ccc(Cl)cc2nc1O (stereo unspecified)

>  <property_name>
GI50

>  <reported_value>
> 100 µM (inactive)

$$$$
>  <compound>
O=c1[nH]cnc2c(C3OC(CO)C(O)C3O)c[nH]c12 (stereo unspecified)

>  <property_name>
GI50

>  <reported_value>
> 100 µM (inactive)

$$$$
>  <compound>
Clc1ccc(-c2c(C3=NCCCN3)nnn2-c2ccccc2)cc1

>  <property_name>
GI50

>  <reported_value>
> 100 µM (inactive)

$$$$
>  <compound>
CCOC(=O)CCCN

>  <property_name>
GI50

>  <reported_value>
> 100 µM (inactive)

$$$$
>  <compound>
C/N=c1/ss/c(=N\C(SC)=[N+](C)C)n1C.[O-][Cl+3]([O-])([O-])[O-]

>  <property_name>
GI50

>  <reported_value>
> 100 µM (inactive)

$$$$
>  <compound>
Nc1c(Br)c(=O)[nH]c(=O)n1COCCO

>  <property_name>
GI50

>  <reported_value>
> 100 µM (inactive)

$$$$
>  <compound>
O=[N+]([O-])c1ccc2[nH]c(-c3ccc(Cl)cc3)nc2c1

>  <property_name>
GI50

>  <reported_value>
20.5 µM (inactive)

$$$$
>  <compound>
CC(C)(Cl)C(Br)CCC(C)(Cl)C(Br)CBr (stereo unspecified)

>  <property_name>
GI50

>  <reported_value>
19.6 µM (inactive)

$$$$
>  <compound>
Oc1ccc2c(c1)OCC(O)(c1ccccc1O)C2 (stereo unspecified)

>  <property_name>
GI50

>  <reported_value>
> 100 µM (inactive)

$$$$
>  <compound>
CCCCCCCCCCCCOC(=S)NCCCC

>  <property_name>
GI50

>  <reported_value>
16.5 µM (inactive)

$$$$
>  <compound>
COc1ccccc1NC(=O)C1=C(C)NC(C)=C(C(=O)Nc2ccccc2OC)C1c1ccccc1Cl

>  <property_name>
GI50

>  <reported_value>
> 100 µM (inactive)

$$$$
>  <compound>
COC(=O)[C@@H]1C[C@@H]2c3ccccc3N(S(=O)(=O)c3ccccc3)[C@@H]2N1C(=O)OC

>  <property_name>
GI50

>  <reported_value>
> 100 µM (inactive)

$$$$
>  <compound>
COc1c2c(cc3c1C1(O)Cc4ccc5c(c4C[N+]1(C)CC3)OCO5)OCO2 (stereo unspecified)

>  <property_name>
GI50

>  <reported_value>
> 100 µM (inactive)

$$$$
>  <compound>
CC1(N2CCOCC2)CC2C(=[N+]1[O-])CCC/C2=N/O (stereo unspecified)

>  <property_name>
GI50

>  <reported_value>
> 100 µM (inactive)

$$$$
>  <compound>
Cc1ccc2c(O)cc(-c3ccc4ccccc4c3)nc2n1

>  <property_name>
GI50

>  <reported_value>
5.58 µM (inactive)

$$$$
>  <compound>
O=C1Nc2cccc3ncn(c23)C2=C1CCCC2

>  <property_name>
GI50

>  <reported_value>
> 100 µM (inactive)

$$$$
>  <compound>
Cc1cc(NS(=O)(=O)c2ccc(NC(=O)c3ccc4nc5ccccc5c(Nc5ccc(S(N)(=O)=O)cc5)c4c3)cc2)no1

>  <property_name>
GI50

>  <reported_value>
22 µM (inactive)

$$$$
>  <compound>
Cn1c(-c2cccs2)cc(-c2ccccc2)c1-c1cccs1

>  <property_name>
GI50

>  <reported_value>
48.2 µM (inactive)

$$$$
>  <compound>
CCCCCC(/C=N/NC(N)=S)C(O)(C(F)(F)F)C(F)(F)F (stereo unspecified)

>  <property_name>
GI50

>  <reported_value>
> 10 µM (inactive)

$$$$
>  <compound>
COC(=O)/C(=N/O)C(C(=O)C=C(C)C)C(=O)C(=O)Nc1nc2ccc([N+](=O)[O-])cc2s1 (stereo unspecified)

>  <property_name>
GI50

>  <reported_value>
44.6 µM (inactive)

$$$$
>  <compound>
COc1nc2c(OC)cccc2c(OC)c1C=O

>  <property_name>
GI50

>  <reported_value>
> 100 µM (inactive)

$$$$
>  <compound>
CC(=O)[C@H]1[C@@H](OCc2ccccc2)O[N+]([O-])=C(C)[C@@H]1c1ccccc1

>  <property_name>
GI50

>  <reported_value>
34.7 µM (inactive)

$$$$
>  <compound>
Nc1nc(N)c2cc(S(=O)(=O)c3ccc4ccccc4c3)ccc2n1

>  <property_name>
GI50

>  <reported_value>
0.142 µM (active)

$$$$
